- Tested on: NHEK immortalized keratinocytes
- Experimental Parameters: 24 h
Binary call on IC50 cell viability (WST-8) with cut-off 10 µM: strictly below means Met, and equality or higher means Not met.

INSERT INTO results (compound, class) VALUES
  ('CC(=O)[O][Hg][c]1ccccc1 [Phenylmercuric acetate]', 'Met'),
  ('COc1ccc(C(C)=O)cc1', 'Not met'),
  ('O=c1c(-c2ccccc2)c1-c1ccccc1', 'Not met'),
  ('CC1(C)CNC(=NN=C(/C=C/c2ccc(C(F)(F)F)cc2)/C=C/c2ccc(C(F)(F)F)cc2)NC1 [Hydramethylnon]', 'Not met'),
  ('Cc1ccc(/C=C2/C(=O)C3(C)CCC2C3(C)C)cc1 (stereo unspecified)', 'Not met'),
  ('N#CC(Cl)(Cl)Cl', 'Met'),
  ('C=CC(=O)OCCCCCCCC(C)C [Isodecyl acrylate]', 'Met'),
  ('COC(C)(C)CCC[C@H](C)C/C=C/C(C)=C/C(=O)OC(C)C', 'Not met'),
  ('Cc1c2ccccc2c(C)c2c1ccc1ccccc12', 'Not met'),
  ('O=[N+]([O-])C(Br)(CO)CO', 'Not met');

----------
IC50 cell viability (WST-8) listing for selected molecules.
- Tested on: NHEK immortalized keratinocytes
- Experimental Parameters: 24 h
Value Type: IC50 cell viability (WST-8) (µM)

INSERT INTO assay_data (molecule, study_system, value_type, reading_qualifier, recorded_measurement) VALUES
  ('CCCCCCCCCCCCN1CCCC1=O', 'NHEK immortalized keratinocytes', 'IC50 cell viability (WST-8)', '=', 15.8),
  ('C[C@H](O)CCO', 'NHEK immortalized keratinocytes', 'IC50 cell viability (WST-8)', '=', 5.52),
  ('CC(=O)OCC(C)OC(C)=O (configuration not stated) [Propylene glycol diacetate]', 'NHEK immortalized keratinocytes', 'IC50 cell viability (WST-8)', '=', 27.7),
  ('O=[N+]([O-])c1ccc(Cl)c([N+](=O)[O-])c1', 'NHEK immortalized keratinocytes', 'IC50 cell viability (WST-8)', '=', 4.76),
  ('CCCCCCCCCCCCCCCCOCCOCCOCCOCCOCCOCCOCCOCCOCCOCCOCCOCCOCCOCCOCCOCCOCCOCCOCCOCCO', 'NHEK immortalized keratinocytes', 'IC50 cell viability (WST-8)', '=', 13.3),
  ('CN=C1C=CC(=C(c2ccc(N(C)C)cc2)c2ccc(N(C)C)cc2)C=C1', 'NHEK immortalized keratinocytes', 'IC50 cell viability (WST-8)', '=', 0.51),
  ('CC(=O)N1CCN(c2ccc(OCC3COC(Cn4ccnc4)(c4ccc(Cl)cc4Cl)O3)cc2)CC1 (configuration not stated)', 'NHEK immortalized keratinocytes', 'IC50 cell viability (WST-8)', '=', 14),
  ('N#CCCC(Br)(C#N)CBr (configuration not stated)', 'NHEK immortalized keratinocytes', 'IC50 cell viability (WST-8)', '>', 88),
  ('O=CCCCC=O', 'NHEK immortalized keratinocytes', 'IC50 cell viability (WST-8)', '=', 24.4),
  ('CC(C)(C)c1cc(O)ccc1O [tert-Butylhydroquinone]', 'NHEK immortalized keratinocytes', 'IC50 cell viability (WST-8)', '>', 88),
  ('CCCCCCCCCCCCc1ccc(S(=O)(=O)O)cc1', 'NHEK immortalized keratinocytes', 'IC50 cell viability (WST-8)', '=', 29.5),
  ('CCCCCCCCCCCC[N+](C)(C)Cc1ccccc1 [Benzyldimethyldodecylammonium chloride]', 'NHEK immortalized keratinocytes', 'IC50 cell viability (WST-8)', '=', 3.36);

----------
- System: NKTC primary neonatal keratinocytes
- Experimental Parameters: 24 h
Where a name gives a salt, the structure may show the parent alone.
IC50 cell viability (WST-8) listing for selected compounds.
Value Type: IC50 cell viability (WST-8) (µM)

INSERT INTO assay_data (compound, unit_tag, reading_qualifier, recorded_measurement) VALUES
  ('Cc1ccc(/C=C2/C(=O)C3(C)CCC2C3(C)C)cc1 (centres undefined)', 'µM', '>', 88),
  ('N#CCCC(Br)(C#N)CBr (centres undefined)', 'µM', '>', 88),
  ('CCCCCCCCCCCC(=O)O', 'µM', '>', 88),
  ('CNc1ccc(O)cc1 [p-Methylaminophenol sulfate]', 'µM', '=', 13.9),
  ('Oc1c(Cl)c(Cl)c(Cl)c(Cl)c1Cl', 'µM', '=', 1.18),
  ('O=[N+]([O-])C(Br)(CO)CO', 'µM', '=', 53.8),
  ('CC(C)(c1ccc(OCC2CO2)cc1)c1ccc(OCC2CO2)cc1 (centres undefined)', 'µM', '=', 65.2),
  ('CCCCCCCCCCCCc1ccc(S(=O)(=O)O)cc1', 'µM', '=', 23),
  ('N#CC(Cl)(Cl)Cl', 'µM', '=', 6.07);

----------
- Test system: NHEK immortalized keratinocytes
- Test Summary: IC50 cell viability (CellTiter-Glo)
- Experimental Parameters: 24 h
Value Type: IC50 cell viability (µM)

INSERT INTO measurements (compound, study_system, value_type, unit_tag, recorded_measurement) VALUES
  ('CC(=O)N1CCN(c2ccc(OCC3COC(Cn4ccnc4)(c4ccc(Cl)cc4Cl)O3)cc2)CC1 (centres undefined)', 'NHEK immortalized keratinocytes', 'IC50 cell viability', 'µM', 26.4),
  ('Oc1cc(Cl)ccc1Oc1ccc(Cl)cc1Cl', 'NHEK immortalized keratinocytes', 'IC50 cell viability', 'µM', 55.1),
  ('O=[N+]([O-])C(Br)(CO)CO', 'NHEK immortalized keratinocytes', 'IC50 cell viability', 'µM', 24.1),
  ('O=C1OC2(c3cc(Br)c(O)c(Br)c3Oc3c2cc(Br)c(O)c3Br)c2c(Cl)c(Cl)c(Cl)c(Cl)c21', 'NHEK immortalized keratinocytes', 'IC50 cell viability', 'µM', 44.9);

----------
- Tested on: NHEK immortalized keratinocytes
- Test Summary: IC50 cell viability (CellTiter-Glo)
- Experimental Parameters: 24 h
Counter-ions that a name gives are not always drawn.
IC50 cell viability listing for selected molecules.
Value Type: IC50 cell viability (µM)

INSERT INTO results (molecule, recorded_measurement) VALUES
  ('C=C1CC[C@H](O)C/C1=C/C=C1\CCC[C@]2(C)[C@@H]([C@H](C)CCCC(C)C)CC[C@@H]12', 13.7),
  ('CN=C1C=CC(=C(c2ccc(N(C)C)cc2)c2ccc(N(C)C)cc2)C=C1', 0.64),
  ('COC(C)(C)CCC[C@H](C)C/C=C/C(C)=C/C(=O)OC(C)C', 82.5),
  ('CCCCCCCCCCCC(=O)O', 58.1),
  ('Cc1ccc(/C=C2/C(=O)C3(C)CCC2C3(C)C)cc1 (stereo unspecified)', 71.3),
  ('CNc1ccc(O)cc1 [p-Methylaminophenol sulfate]', 6.78);
